B1: INTS3 (parent)
chain: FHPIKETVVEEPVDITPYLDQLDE

# Variants of: B1
# assayInfo: protein stability index of a GFP-peptide fusion (GPS, HEK-293T) (PSI 1-6); higher = more stable;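 note: lentivirally expressed fusions sorted by FACS into six bins by GFP to DsRed ratio, PSI derived from sequencing read proportions per bin multiplied by bin number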
# conditionsUsed: c terminus: a fixed tail appended
metric: protein stability index
Reply with just the number.

Solved cases (4 shown):
Q21Y = 2.5
I4D = 4.08
I15K = 3.86
I4Q = 3.83

// query protein stability index value for entry `F1D` 5.78

// query protein stability index value for entry `D23R` 2.63

// query protein stability index value for entry `D20P` 2

// query protein stability index value for entry `P3T` 3.43

// query protein stability index value for entry `D14P` 3.09

Measured values drawn from the supplement of paper PMC10567573 for this set.
